Sourced from patent US3989598A

Assay: subacute toxicity in the mouse (one dose per day for 5 days)
Measurement context: in vivo, sc
Assay metric: LD50
Please answer in the form of a number followed by its unit of measurement.

Task: # LD50 lookup, item COc1cccc2c1C(=O)c1c(O)c3c(c(O)c1C2=O)C[C@@](O)(C(C)=O)C[C@@H]3O[C@H]1C[C@H](N)[C@H](O)[C@H](C)O1 [13057 RP daunorubicin, daunorubicin]
Output: 13.7 mg/kg

----------
Assay: clinical dosage in acute leukaemias: maximum safe dose
Measurement context: human, in vivo, iv, overall dosage of initial treatment, calculated per kg weight
Assay metric: MTD

Task: # MTD lookup, item COc1cccc2c1C(=O)c1c(O)c3c(c(O)c1C2=O)C[C@@](O)(C(C)=O)C[C@@H]3O[C@H]1C[C@H](N)[C@H](O)[C@H](C)O1 [13057 RP daunorubicin, daunorubicin]
Output: ~25 mg/kg
